Molecular target: T1, recombinant His-tagged human TIGIT-ECD protein (human, UniProt Q495A1 22-141)
T1 construct: extracellular domain; The ELISA text only says His-tagged human TIGIT; also called His-tagged TIGIT; human TIGIT protein; not shown: His tag
T1 sequence (looked up): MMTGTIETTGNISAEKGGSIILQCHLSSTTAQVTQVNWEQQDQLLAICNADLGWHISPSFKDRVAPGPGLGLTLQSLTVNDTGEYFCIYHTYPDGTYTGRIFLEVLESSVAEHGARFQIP
Assay: SPR (Biacore T200), antibody captured, His-tagged TIGIT-ECD injected
Measured kon, listed per entry.
Lab book: enter the figure in M⁻¹ s⁻¹, no units written.

Some solved cases for reference:
1. 167F7 (antibody, human IgG1, V domains shown, Mouse hybridoma clone) VH: EFQLQQSGPELVKPGASVKISCRASGYSFTAYSMNWVQQTNGKSLEWIGVINPKFGTINYNQKFKDKATLTVDHSSSAAYMQLNSLTSEDSAVYFCARNGNFAWYFDVWGTGTTVTVSS VL: DIQMTQSPASLSASVGETVTITCRASESIFSYLAWYQQKQGKSPQLLAYNAETLAEGVPSRFSGSGSGTQFSLKINSLQSEDFGIYYCQHHFGVPWTFGGGTKLEIK = 4.45e+06
2. 350D10 (antibody, human IgG1, V domains shown, Mouse hybridoma clone; also called 350D10-chimeric) VH: EVKLVESGGALVQPGGSLKLSCAASGFTFSDYYMYWVRQTPEKRLEWVASITKGGGSTYYPDTLKGRFTISRDNAKNTLYLQMSRLKSEDTDMYYCARQSSYDFVMDYWGQGTSVTVSS VL: DIVMTQSHKFMSTSVGDRVTITCKASQDVDTAVAWYQQKPGQSPKLLIYWASARHTGVPDRFTGSGSGTDFTLTISNVQSEDLADYFCQQYSNYPLTFGVGTKLELK = 1.87e+06
3. 90D9 (antibody, V domains shown, Mouse hybridoma clone; also called 90D9-chimeric) VH: EVQLQQSGPELVKPGASVKISCKTSGYTFTENTMHWVKQSHGKSLEWIGGINPNQGGNRNNQKFKGKATLTVDKSSSTAYMELRSLTSEDSAVYYCARSGLRDYAMDYWGQGTSVTVSS VL: DIVMTQSHKFMSTSVGDRVSITCKASQHVSTAVVWYQQKPGQSPKLLIYSPSYRYTGVPDRFTGSGSGTDFTFTISSVQAEDLAVYYCQQHYSTPWTFGGGTKLEIK = 619000

Return value of kon for input 222H4 (antibody, human IgG1, V domains shown, Mouse hybridoma clone) VH: EVQLQQSGPELVKPGASVKISCKTSGYTFSDYTLHWVKQSHGKNLEWIGGFNPNNGGTNYNQKFKVKASLTIDKSSNTVYMELRSLSSEDSAVYYCARNWAFDYWGQGTTLTVSS VL: DIVMTQSHKIMSTSLGDRVNITCKASQHVSTAVAWYQQRPGQSPRLLIYSASYRHTGVPDRFTGSGSGTDITFTISSVQTEDLAVYYCQQYYTTPWTFGGGTKLEIK , no commentary.
1.87e+06
